System: S. cerevisiae tim23-1 mutant growth, luminescence
Experiment: tim23-1 yeast growth suppression potency – luminescence, uHTS hits, counter-screen for tim10-1 yeast inhibitor project, dose response (AID 504544)
pIC50: −log10 of the molar value.
# pIC50 annotations
PARAMETER: pIC50

• Cc1ccc(F)c([C@H]2[C@@H]3C=CCC[C@@]3(C)C(=O)N2Cc2ccccc2)c1 = 4.74
• O=C(NNC(=S)Nc1ccc(Cl)cc1)c1ccccc1OC(F)F = 5.06
• CCOC(=O)c1ccc(NC(=O)CC2OCCN(CC)C2=O)cc1 (stereo not given) = 5.69
• CC1(CC(=O)N/N=C/c2ccc(OCc3ccc(Cl)cc3Cl)cc2)OCCCO1 = 5.37
• Nc1c(C(=O)Nc2ccccc2)c2nc3ccccc3nc2n1CCCN1CCOCC1 = 4.90

====

System: S. cerevisiae tim23-1 mutant growth, luminescence
Assay: tim23-1 yeast growth suppression potency – luminescence, uHTS hits, counter-screen for tim10-1 yeast inhibitor project, dose response (AID 504544)
Catalogue of IC50 readings, one per entry.
PARAMETER: IC50

• CC1=C/C(=N\OS(=O)(=O)c2ccccc2)C(C)=CC1=O = < 0.2 µM
• CCOc1ccccc1NC(=O)/C=C/C(N)=O = 7.36 µM
• Cc1ccc(NC(=O)c2cc(S(=O)(=O)NCCC3=CCCCC3)ccc2F)cc1 = 33.2 µM
• N/C(=N\OC(=O)CCC1CCCC1)c1ccccc1 = 29.6 µM
• CCCOc1ccc(CN(CCC#N)C(=S)NC(=O)c2ccccc2)cc1 = 22.7 µM
• O=c1c2ccccc2[se]n1-c1ccccc1 = 0.88 µM
• CCCCNC(=S)N=Nc1c(O)[nH]c2ccccc12 = 4.92 µM
• COc1ccccc1N1C(=O)CC(Sc2n[nH]c(-c3cccc(C)c3)n2)C1=O (stereo unspecified) = 7.77 µM
• CCOc1ccc(-n2cc(-c3ccccc3)c3c(=O)[nH]cnc32)cc1 = 13.8 µM
• CC(C)(C)OC(=O)N[C@@H](Cc1ccccc1)c1nnc(S(=O)(=O)Cc2cccc(F)c2)o1 = 2.28 µM
• COC(=O)C(C(C)=O)C1=C/C(=N\S(=O)(=O)c2ccc(C)cc2)c2ccccc2C1=O (stereo unspecified) = 9.86 µM

====

Recorded IC50, one value per entry.
Tested on: S. cerevisiae tim23-1 mutant growth, luminescence
Test: tim23-1 yeast growth suppression potency – luminescence, uHTS hits, counter-screen for tim10-1 yeast inhibitor project, dose response (AID 504544)
PARAMETER: IC50

- CC(C)(C)c1ccc(CN2N=Nc3ccccc3S2(=O)=O)cc1: 5.66 µM
- COc1ccc(/C(C)=N/NC(=S)NCCc2ccccc2)cc1: 19.5 µM
- CCCCc1ccc(NC(=S)Nc2ccc(Nc3ccc(OC)cc3)cc2)cc1: 30.1 µM
- COc1ccc2cc3cc(C(=O)NCCN4CCc5ccccc5C4)oc3nc2c1: 3.34 µM
- Cc1cc(/C=C\c2ccc3cc(N(C)C)ccc3[n+]2C)c(C)n1-c1ccccc1: 5.95 µM
- Cc1ccccc1/C=C/C(=O)c1ccc([N+](=O)[O-])o1: 1.5 µM
- CN(C)CCCN(C(=O)c1cc2cc([N+](=O)[O-])ccc2s1)c1nc2cc3c(cc2s1)OCCO3: 13.5 µM
- O=C(OCn1ncc(Br)c(Br)c1=O)c1ccc(F)cc1: 1.78 µM
- CC(C)c1nnc(NC(=O)CCS(=O)(=O)c2nc(-c3cccs3)cc(C(F)(F)F)n2)s1: 8.43 µM
- Nc1nc(N)c(C=Nc2ccc(Br)cc2)c(Nc2ccc(Br)cc2)n1: 14 µM
- Fc1ccccc1CNC(=S)Nc1cccc(C(F)(F)F)c1: 11.8 µM
- O=C(NC(=S)Nc1ccccc1N1CCCC1)c1ccc([N+](=O)[O-])cc1: 19.3 µM
- Cc1ccc(S(=O)(=O)c2nc(S(C)(=O)=O)sc2N2CCCCC2C)cc1 (stereo not given): 11.7 µM
- Cc1ccc(NC(=S)Nc2ccc(Cl)c(Cl)c2)c(OC(F)F)c1: 14.4 µM
- O=C(N/N=C/c1ccc[nH]1)c1cc(-c2ccc(Cl)cc2)nc2ccccc12: 8.98 µM
- Nc1nc(-c2ccc(Br)cc2)cs1: 17.6 µM
- Cc1nc(Nc2ccccc2)sc1-c1ccccc1: 29 µM
- Clc1ccc(CNc2nc(CN3CCOCC3)nc3scc(-c4ccccc4)c23)cc1: 11.4 µM
- CC1=C/C(=N\OS(=O)(=O)c2ccccc2)C=CC1=O: 0.27 µM
- COc1cc(C(=O)Nc2ccc(Cl)c(C(F)(F)F)c2)cc(OC)c1OC: 33.3 µM
- Cn1c(NCCCO)nc2c(c1=O)C1(CCCCC1)Cc1ccccc1-2: 8.71 µM
- N/C(=N\OC(=O)CCC1CCCC1)c1cccc([N+](=O)[O-])c1: 10.8 µM
- Cc1ccc(OCC(=O)O/N=C(\N)Cc2ccc(Cl)cc2)cc1: 61.9 µM
- CCOc1ccccc1N1C(=O)CC(Sc2n[nH]c(-c3ccccc3)n2)C1=O (stereo not given): 4.1 µM
- O=C(Nc1cccc(N2C(=O)C=CC2=O)c1)c1cccs1: 2.52 µM
- CC(=O)c1ccc(NC(=S)NC(C)c2ccc(Cl)cc2Cl)cc1 (stereo not given): 13.8 µM
- COc1ccc(/C=C/C(=O)c2ccccc2)cc1Cn1nnc2ccccc21: 7.94 µM
- COc1ccc(Cl)cc1NC(=S)NCCc1ccc(F)cc1: 12.5 µM
- O=C(OCn1ncc(Br)c(Br)c1=O)c1ccccc1Cl: 2.07 µM
- COC(=O)c1c(N2C(=O)CC(Sc3ccccc3C(=O)O)C2=O)sc2c1CCCC2 (stereo not given): 3.13 µM
- COc1cc(N=c2ssnc2Cl)c(OC)cc1Cl: 3.77 µM
- Cn1c(Cl)cnc1C1CC(=O)c2cc(Cl)ccc2O1 (stereo not given): 4.44 µM
- COc1ccc(C(=O)O/N=C(\N)c2ccc(Br)cc2)cc1: 14.4 µM
- Cc1onc(-c2ccc3c(c2)OCO3)c1-c1ccc2[nH]ccc2c1: 10.7 µM
- CC(C)C(c1nnnn1C1CCCC1)N1CCCc2ccccc21 (stereo not given): 13.7 µM
- COc1ccc(-c2nncnn2)cc1: 3.86 µM
- C/C(=N\NC(=S)NCc1ccccc1)c1ccc(Cl)s1: 17.5 µM
- Cc1nonc1C1CCCN1C(=O)c1cc(COc2cccc(C(F)(F)F)c2)on1 (stereo not given): 19.2 µM
- CCCCNC(=S)Nc1ccc(C(F)(F)F)cc1: 12 µM
- COc1cc(OC)c(C(=O)O/N=C(\N)c2ccc(C)cc2)cc1OC: 6.94 µM
- Cc1cc(C)cc(N2C(=O)CC(Sc3nnnn3-c3ccccc3)C2=O)c1 (stereo not given): 1.26 µM
- COc1ccc(-c2cc(C3CC3)nc3sc(C#N)c(N)c23)cc1: 6.84 µM
- CC(=O)N1CCN(c2cc(N3CCc4ccccc4C3)c(F)cc2[N+](=O)[O-])CC1: 34.7 µM
- COc1ccc(NC2CCN(C3CC(=O)N(c4ccc(F)c(Cl)c4)C3=O)CC2)cc1 (stereo not given): 5.66 µM
- COc1ccc(C(=O)Nc2ccc(-n3nncc3C(C)(C)C)cc2)cc1: 8.87 µM
